# Assay type: physicochemical
# condition.notes: 60° C., 1 w

{"molecule": "COCC1(O)CCC2(C)C(CCC3C2CCC2(C)C(C(=O)Cn4ccnc4)CCC32)C1.O=S(=O)(O)c1ccc2ccccc2c1 (centres unmarked) [Napsylate (Form A)]", "Final purity": 99.1}
{"molecule": "COCC1(O)CCC2(C)C(CCC3C2CCC2(C)C(C(=O)Cn4ccnc4)CCC32)C1.O=C(O)c1cc(O)ccc1O (centres unmarked) [Gentisate salt (Form A)]", "Final purity": 97.0}
{"molecule": "Br.COCC1(O)CCC2(C)C(CCC3C2CCC2(C)C(C(=O)Cn4ccnc4)CCC32)C1 (centres unmarked) [Compound 1 HBr (Form B)]", "Final purity": 98.8}
{"molecule": "COC[C@@]1(O)CC[C@@]2(C)[C@@H](CC[C@@H]3[C@@H]2CC[C@]2(C)[C@@H](C(=O)Cn4ccnc4)CC[C@@H]32)C1.O=C(O)C[C@H](O)C(=O)O [L-Malate (Form B)]", "Final purity": 97.8}
{"molecule": "COCC1(O)CCC2(C)C(CCC3C2CCC2(C)C(C(=O)Cn4ccnc4)CCC32)C1.Cc1ccc(S(=O)(=O)O)cc1 (centres unmarked) [Tosylate (Form A)]", "Final purity": 99.5}
{"molecule": "COC[C@@]1(O)CC[C@@]2(C)[C@@H](CC[C@@H]3[C@@H]2CC[C@]2(C)[C@@H](C(=O)Cn4ccnc4)CC[C@@H]32)C1.O=C(O)C(=O)O [Oxalate (Form A)]", "Final purity": 98.3}
{"molecule": "COC[C@@]1(O)CC[C@@]2(C)[C@@H](CC[C@@H]3[C@@H]2CC[C@]2(C)[C@@H](C(=O)Cn4ccnc4)CC[C@@H]32)C1.O=C(O)C(O)C(O)C(=O)O [L(+)-Tartrate (Form B)]", "Final purity": 99.2}
{"molecule": "COC[C@@]1(O)CC[C@@]2(C)[C@@H](CC[C@@H]3[C@@H]2CC[C@]2(C)[C@@H](C(=O)Cn4ccnc4)CC[C@@H]32)C1.O=C(O)CC(O)(CC(=O)O)C(=O)O [Compound 1 Citrate (Form B)]", "Final purity": 97.7}
{"molecule": "COC[C@@]1(O)CC[C@@]2(C)[C@@H](CC[C@@H]3[C@@H]2CC[C@]2(C)[C@@H](C(=O)Cn4ccnc4)CC[C@@H]32)C1.O=P(O)(O)O [Phosphate (Form A)]", "Final purity": 99.2}
{"molecule": "COCC1(O)CCC2(C)C(CCC3C2CCC2(C)C(C(=O)Cn4ccnc4)CCC32)C1.O=C(O)c1ccc2ccccc2c1O (centres unmarked) [1-hydroxy-2-napthoate (Form A)]", "Final purity": 88.91}
{"molecule": "COCC1(O)CCC2(C)C(CCC3C2CCC2(C)C(C(=O)Cn4ccnc4)CCC32)C1.O=C(O)C(Cl)Cl (centres unmarked) [Dichloroacetate (Form A)]", "Final purity": 96.3}
